test system: MDA-MB-468; assay: phospho-S6 immunofluorescence (DAPI-normalised), per-plate z-score; higher = higher phospho-S6 signal (less pathway suppression); conditions: co-treatment: vehicle; 24 h
Where a name gives a salt, the structure may show the parent alone.
reported_property: phospho-S6 immunofluorescence (z-score)
Enter the number alone.

Answered cases to consult:
Reported phospho-S6 immunofluorescence (z-score) (MDA-MB-468) for entry CC(C)N(CCCCOCC(=O)NS(C)(=O)=O)c1cnc(-c2ccccc2)c(-c2ccccc2)n1 (compound 10 µM) is -0.38

Reported phospho-S6 immunofluorescence (z-score) (MDA-MB-468) for entry Cn1c(=O)c2nc[nH]c2n(C)c1=O [Theophylline] (compound 10 µM) is 0.71

Reported phospho-S6 immunofluorescence (z-score) (MDA-MB-468) for entry CCCCc1oc2ccc(NS(C)(=O)=O)cc2c1C(=O)c1ccc(OCCCN(CCCC)CCCC)cc1 [Dronedarone] (compound 10 µM) is -9.98

Reported phospho-S6 immunofluorescence (z-score) (MDA-MB-468) for entry CC(C)NCC(O)COc1ccc(CCOCC2CC2)cc1 (stereo not drawn) [Betaxolol (hydrochloride)] (compound 10 µM) is 0.74

Reported phospho-S6 immunofluorescence (z-score) (MDA-MB-468) for entry COc1ccc(/C=C/C(=O)Nc2ccccc2C(=O)O)cc1OC [Tranilast (trans-)] (compound 10 µM) is 0.65

Reported phospho-S6 immunofluorescence (z-score) (MDA-MB-468) for entry CCCCC(=O)N(Cc1ccc(-c2ccccc2-c2nnn[nH]2)cc1)[C@H](C(=O)O)C(C)C [Valsartan] (compound 10 µM) is 0.13

Reported phospho-S6 immunofluorescence (z-score) (MDA-MB-468) for entry CC(C)(C)NCC(O)c1cc(O)cc(O)c1 (stereo not drawn) [Terbutaline (sulfate)] (compound 10 µM) is 1.44

Reported phospho-S6 immunofluorescence (z-score) (MDA-MB-468) for entry OCCN1CCN(CCCN2c3ccccc3Sc3ccc(C(F)(F)F)cc32)CC1 [Fluphenazine (dihydrochloride)] (compound 10 µM) is -2.87

Others:
Reported phospho-S6 immunofluorescence (z-score) (MDA-MB-468) for entry COCc1nnc(N2CC(Oc3ccc(F)cc3Cl)C2)n1-c1ccc(OC)nc1 (compound 10 µM) is -0.61
